- SYSTEM_NAME: T1, Pot1-DBD_Y115A (Schizosaccharomyces pombe, UniProt O13988 1-389, Y115A)
- T1 sequence: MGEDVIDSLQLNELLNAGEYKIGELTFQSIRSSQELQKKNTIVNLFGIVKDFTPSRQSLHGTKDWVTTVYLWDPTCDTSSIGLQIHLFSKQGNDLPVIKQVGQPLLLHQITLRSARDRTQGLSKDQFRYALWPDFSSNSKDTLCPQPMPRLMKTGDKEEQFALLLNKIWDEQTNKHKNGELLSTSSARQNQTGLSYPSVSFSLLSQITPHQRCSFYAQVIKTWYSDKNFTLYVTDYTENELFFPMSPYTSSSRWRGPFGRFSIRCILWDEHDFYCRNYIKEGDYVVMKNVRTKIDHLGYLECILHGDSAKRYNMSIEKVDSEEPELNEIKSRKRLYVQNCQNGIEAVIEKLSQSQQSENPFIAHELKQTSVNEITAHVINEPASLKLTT
- ASSAY_METHOD_TEXT: filter binding
MEASUREMENT_TYPE: pKd
Interpret pKd as the negative base-10 log of the concentration measured in mol/L.

Could you share which pKd value was measured for GGTTACGGTTAC (ssDNA) [12mer] ?
7.10

Each recorded value in this set is attributed to paper PMC2756145.
